Reported Concentration of radioactivity, B 16 (tumour), Mean is given for each of the following compounds.
# System: grafted B16 F0 murine melanoma tumour
# Experiment description: Biodistribution of the ^125I-labelled molecules in the melanoma-bearing mouse (autoradiography of whole-body sections)
# Condition label: 1 H after i.v. administration, ^125I-labelled compound
Counter-ions that a name gives are not always drawn.
Give your result in % ID/g as a bare value.

Worked set:
{"Compound": "CCN(CC)CCNC(=O)c1nc2ccc(I)cc2[nH]1.Cl.Cl", "Target entity": "grafted B16 F0 murine melanoma tumour", "Observed value": 14.78}
{"Compound": "CCN(CC)CCNC(=O)c1cc2cc(I)ccc2[nH]1 [compound 10, hydrochloride]", "Target entity": "grafted B16 F0 murine melanoma tumour", "Observed value": 8.31}
{"Compound": "CCN(CC)CCNC(=O)c1ccc(I)nc1 [compound 7, dihydrochloride]", "Target entity": "grafted B16 F0 murine melanoma tumour", "Observed value": 15.49}

Query: Supply recorded Concentration of radioactivity, B 16 (tumour), Mean for CCN(CC)CCNC(=O)c1ccc2cc(I)ccc2n1.Cl.Cl here.
Reply: 19.63

Query: Supply recorded Concentration of radioactivity, B 16 (tumour), Mean for CCN(CC)CCNC(=O)c1ccc2cc(I)ccc2c1 [compound 3, hydrochloride] here.
Reply: 12.99

Query: Supply recorded Concentration of radioactivity, B 16 (tumour), Mean for CCN(CC)CCNC(=O)c1nc2ccccn2c1I [compound 16, dihydrochloride] here.
Reply: 2.96
